assay: chemical genetic growth profiling, strain panel (AID 1159580);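 further: tested at 20 µM; growth read once vehicle control cultures reached saturation at 30 °C; 1 = growth at the plate median or of vehicle wells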; conditions: S. cerevisiae deletion strains, growth OD, locus YLL001W, strain dnm1, stronger effect = lower value
The whole screen tested about 5,500 compounds, of which about 2,000 (36%) were called active. Inconclusive results (about 18%) are left out. This is one part of the list.
measurement.label: normalized growth
Respond with the number and no other words.

Req: Quick check: normalized growth of CC(C)c1ccc2c(c1)CCC1[C@](C)(CN)CCC[C@]21C (stereo partly drawn) ?
Resp: 0.963

Req: # input molecule: CC(=O)OCC(=O)[C@@]1(O)[C@H](C)CC2C3CCC4=CC(=O)C=C[C@]4(C)[C@@]3(F)[C@@H](O)C[C@@]21C (stereo partly drawn) ; wanted: its normalized growth
Resp: 0.926

Req: Reported normalized growth, molecule NC(Cn1ccc(=O)c(O)c1)C(=O)O (stereo not drawn) : ____
Resp: 0.981

---

experiment: chemical genetic growth profiling, strain panel (AID 1159580);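 further: tested at 20 µM; growth read once vehicle control cultures reached saturation at 30 °C; 1 = growth at the plate median or of vehicle wells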; settings: S. cerevisiae deletion strains, growth OD, locus YNL322C, strain KRE1 (second series), stronger effect = lower value
The campaign covered roughly 5,500 compounds. About 2,000 (36%) were called active. About 18% were inconclusive and are not listed. The list shows a part of the results.
measurement.label: normalized growth
// no unit string in output, number only

Req: # normalized growth lookup, item CC(=O)O[C@@H]1CC2C(C)(C)C(=O)C=C[C@]2(C)C2CC[C@]3(C)C(=CC(=O)O[C@H]3c3ccoc3)[C@@]21C (stereo partly specified)
Resp: 1

Req: Consider the compound CC(=O)O[C@H]1CC[C@@]2(C)C(C[C@@H](OC(C)=O)[C@@]3(C)C4=CC(=O)O[C@@H](c5ccoc5)[C@]4(C)CCC23)C1(C)C (stereo partly specified) and give its measured normalized growth.
Resp: 0.987

Req: Give its normalized growth value. Item: O=P1(NCCCl)OCCCN1CCCl (stereo unspecified)
Resp: 0.986

Req: Can you share its normalized growth? I mean this compound: O=C(O)C1=CCCNC1
Resp: 1

Req: For CC(=O)O[C@@H]1CC2C(C)(C)[C@H](O)C=C[C@]2(C)C2CC[C@]3(C)C(=CC(=O)O[C@H]3c3ccoc3)[C@@]21C (stereo partly specified) , what is its reported normalized growth?
Resp: 1

Req: Param item = CC(=O)c1cc(CC=C(C)C)c(O)c(CC=C(C)C)c1 ; retrieve measured normalized growth.
Resp: 1.01

---

test: chemical genetic growth profiling, strain panel (AID 1159580);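 further: tested at 20 µM; growth read once vehicle control cultures reached saturation at 30 °C; 1 = growth at the plate median or of vehicle wells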; settings: S. cerevisiae deletion strains, growth OD, locus YPR167C, strain met16, stronger effect = lower value
About 2,000 (36%) of roughly 5,500 compounds were called active. About 18% were inconclusive and are not listed. The list shows a part of the results.
I'd be grateful if you could share measured normalized growth for these entries.
Number only, please.

Req: Item under review: CCOC(=O)NNc1nncc2ccccc12 . Reported normalized growth?
Resp: 0.975

Req: Item O=P1(N(CCCl)CCCl)NCCCO1 (stereo unspecified) has what recorded normalized growth?
Resp: 1.02

Req: Any idea what normalized growth was measured for CC1(C)CC2C1CC[C@]1(CBr)CCC3C(CC(=O)O)C(=O)O[C@@]32C1 (stereo partly specified) ?
Resp: 0.999

Req: Entry CS(=O)(=O)c1ccc([C@@H](O)[C@@H](CO)NC(=O)C(Cl)Cl)cc1 has what normalized growth?
Resp: 0.975

Req: Which measured normalized growth value corresponds to CC(C)=CC1C(C(=O)O)C1(C)C (stereo unspecified) ?
Resp: 0.941

Req: # normalized growth lookup, item OC[C@H]1O[C@@](CO)(O[C@@H]2O[C@H](CO)[C@@H](O)[C@H](O)[C@H]2O)[C@@H](O[C@@H]2O[C@H](CO)[C@@H](O)[C@H](O)[C@H]2O)[C@@H]1O
Resp: 1.02

Req: normalized growth lookup needed for N=C(N)N , thanks.
Resp: 0.971

Req: Recorded normalized growth for NCCCCCCNS(=O)(=O)c1cccc2c(Cl)cccc12 , please?
Resp: 0.986

Req: # normalized growth lookup, item NCC(=O)c1ccccc1
Resp: 0.991

Req: Look up normalized growth for this molecule: COc1cc(C/C=C/c2ccccc2)c(OC)cc1O
Resp: 0.959

Req: Request the reported normalized growth associated with CC(=O)Oc1ccc(C(c2ccc(OC(C)=O)cc2)c2ccccn2)cc1
Resp: 0.989
